B1: library; numbered along this chain (parent)
chain: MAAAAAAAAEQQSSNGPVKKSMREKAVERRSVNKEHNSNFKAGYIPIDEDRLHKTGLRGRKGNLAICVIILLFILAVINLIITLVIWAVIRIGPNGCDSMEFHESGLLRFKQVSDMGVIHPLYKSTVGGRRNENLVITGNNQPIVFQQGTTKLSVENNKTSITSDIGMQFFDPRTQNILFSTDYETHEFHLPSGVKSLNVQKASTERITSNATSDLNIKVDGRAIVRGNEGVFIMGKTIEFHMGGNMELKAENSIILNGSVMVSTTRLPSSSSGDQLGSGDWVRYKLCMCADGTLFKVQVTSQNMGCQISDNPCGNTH

Variants of: B1
PROCEDURE_TEXT: SGCB cell-surface expression functional score (HA stain, bin4 vs bin1, normalised to synonymous) (log10 ratio); higher = more cell-surface SGCB (functional)
Label true when SGCB cell-surface expression functional score (log10) is at or above -0.02; otherwise label false.

P17C	true

Prompt: Does the variant `E252R` have recorded SGCB cell-surface expression functional score (log10) that is -0.02 or more?
Completion: true

Prompt: Same question for `G43D` please.
Completion: true

Measured values drawn from the supplement of paper PMC10266784 for this set.
